Assay comment: Hydrolysis Assay of Example A2, Condition 1 (SGF with pepsin, pH 1.5, 37° C.)
Assay type: physicochemical
Condition parameters: SGF with pepsin pH 1.5, 37° C., 0.5 mM; time 1 min
Reported metric: Condition 1 Conversion (%)
Please respond with the number in % and leave the unit unwritten.

See these solved cases before continuing.
{"Molecule": "COc1ccc([C@]23CCN(C)[C@H]2CC2(CC3)OCC(C34CC5CC(CC(C5)C3)C4)O2)cc1OC (stereo partly shown) [Compound 281]", "Condition 1 Conversion (%)": 0}
{"Molecule": "COc1ccc([C@]23CCN(C)[C@H]2CC2(CC3)OCC(C)O2)cc1OC (stereo partly shown) [Compound 211]", "Condition 1 Conversion (%)": 0}
{"Molecule": "COc1ccc([C@]23CCN(C)[C@H]2CC2(CC3)Oc3ccccc3O2)cc1OC [Compound 300]", "Condition 1 Conversion (%)": 0}

Summary for this molecule, COc1ccc([C@]23CCN(C)[C@H]2CC2(CC3)OCC(COCc3ccccc3)O2)cc1OC (stereo partly shown) [Compound 215] : Condition 1 Conversion (%) is 0

----------
Each entry below carries its reported Mouse Plasma Prodrug (%).
Assay comment: Plasma Stability Assay of Example A3, mouse plasma
Condition parameters: % of prodrug compound remaining, 37° C., 120 min

See these solved cases before continuing.
{"Compound structure": "COc1ccc([C@@]23CCC(OC(=O)c4cccc(C)c4)=C[C@@H]2N(C)CC3)cc1OC", "Reported metric": "Mouse Plasma Prodrug (%)", "Data value": "0%"}
{"Compound structure": "COc1ccc([C@@]23CCC(OC(=O)c4cccc(N(C)C)c4)=C[C@@H]2N(C)CC3)cc1OC", "Reported metric": "Mouse Plasma Prodrug (%)", "Data value": "0.0%"}
{"Compound structure": "COc1ccc([C@@]23CCC(OC(=O)c4ccc(F)cc4)=C[C@@H]2N(C)CC3)cc1OC", "Reported metric": "Mouse Plasma Prodrug (%)", "Data value": "0%"}

Summary for this compound, C/C=C(\C)C(=O)OC1=C[C@@H]2N(C)CC[C@]2(c2ccc(OC)c(OC)c2)CC1 : Mouse Plasma Prodrug (%) is 0.0%

----------
Assay comment: Pharmacokinetics of 043 and 001 in mice after oral 043 (75 mg/kg)
Type: in vivo, male C57BL/6 mice
Condition parameters: male, C57BL/6, mouse; plasma, analyte as labelled, single oral administration of 043, 75 mg/kg; read-out: Tmax
Reported metric: Tmax

Summary for this compound, COc1ccc([C@@]23CCC(=O)C[C@@H]2N(C)CC3)cc1OC [Compound 001, mesembrine, reference compound] : Tmax is 30 min

----------
Each entry below carries its reported Rat Plasma Prodrug (%).
Condition parameters: 10 min, 5 µM
Please respond with the number in % and leave the unit unwritten.

See these solved cases before continuing.
{"Molecule": "CCC(C)(CC)C(=O)OC1=C[C@@H]2N(C)CC[C@]2(c2ccc(OC)c(OC)c2)CC1", "Rat Plasma Prodrug (%)": 98.2}
{"Molecule": "CCCC(CCC)C(=O)OC1=C[C@@H]2N(C)CC[C@]2(c2ccc(OC)c(OC)c2)CC1", "Rat Plasma Prodrug (%)": 93.6}
{"Molecule": "COc1ccc([C@@]23CCC(OC(=O)c4cccc(C)c4)=C[C@@H]2N(C)CC3)cc1OC", "Rat Plasma Prodrug (%)": 9.7}
{"Molecule": "COc1ccc([C@@]23CCC(OC(=O)CC(C)(C)C)=C[C@@H]2N(C)CC3)cc1OC", "Rat Plasma Prodrug (%)": 74.5}
{"Molecule": "CCCCC(CC)C(=O)OC1=C[C@@H]2N(C)CC[C@]2(c2ccc(OC)c(OC)c2)CC1 (stereo partly shown)", "Rat Plasma Prodrug (%)": 84.5}

Okay, next one:
Summary for this molecule, CCC(C)C(=O)OC1=C[C@@H]2N(C)CC[C@]2(c2ccc(OC)c(OC)c2)CC1 (stereo partly shown) : Rat Plasma Prodrug (%) is 4.4

Values were extracted from patent US12269800B2.
